Where these numbers come from: PubChem BioAssay (NCI)

Could you please report measured growth inhibition for the items listed next?
Assay: NCI Yeast Anticancer Drug Screen. Data for the mlh1 rad18 strain (AID 175)
Conditions: S. cerevisiae mlh1 rad18 strain growth inhibition; at 50.0 µM; hits give high values
About 79,000 compounds went through this panel and 15% of them were active in at least one assay; those are over-represented in the sample as a whole.
One number for each entry, in %.

1) O=C(Cc1ccc(OCc2ccccc2)cc1)NCc1ccc2c(c1)OCO2 :: -9.5

Hey, can you go through the list below and give me growth inhibition for every item?
1. N#CSc1cc(S(N)(=O)=O)ccc1N
2. O=C1OC[C@H]2[C@H](c3ccc(O)c(O)c3)c3cc(O)c(O)cc3C[C@H]12

Result:
1: 32; 2: 10.9

I have 7 compounds here; please give me growth inhibition for each one.
1. O=C(/C=C\c1ccc(O)cc1)c1ccccc1
2. OCC(O)C(O)C(O)C(O)/C=N/O (stereo unspecified)
3. c1ccc2c(N3CCCCC3)ncnc2c1
4. CCOC(=O)C(CCC(C)C)C(=O)OCC
5. CCCCC(CC)COC(C)=O (stereo unspecified)
6. CN(c1ccccc1)c1ncnc2c1ncn2C
7. COC(=O)c1cccc(Br)c1

Result:
1: 14.1; 2: 3.65; 3: -3; 4: 2.6; 5: 13.8; 6: 4.1; 7: 13.4

// input: 2 compounds below; output: growth inhibition for each
1. O=[N+]([O-])c1ccc(N=Nc2ccccc2)cc1
2. CC(=O)NC(N)=S

Result:
14.8
-7

Look at each compound and report its growth inhibition.
1. CCOC(=O)Nc1nn[nH]n1
2. CC1=C(/C=C/C(C)=C/C=C/C(C)=C/CO)C(C)(C)CCC1

Result:
1: 3.65; 2: 6.55

I would be grateful if you could provide growth inhibition for each of the following entries.
1. C/C=C/CC(C)C(O)C1C(=O)NC(CC)C(=O)N(C)CC(=O)N(C)C(CC(C)C)C(=O)NC(C(C)C)C(=O)N(C)C(CC(C)C)C(=O)NC(C)C(=O)NC(C)C(=O)N(C)C(CC(C)C)C(=O)N(C)C(CC(C)C)C(=O)N(C)C(C(C)C)C(=O)N1C (stereo unspecified)
2. CCCCOC(=O)c1ccc(C(C)C)cc1

Result:
18.1
4.35

* * *

Experiment: NCI Yeast Anticancer Drug Screen. Data for the mec2-1 strain (AID 157)
Conditions: S. cerevisiae mec2-1 strain, at 50.0 µM, hits give high values
The panel holds about 79,000 compounds, 15% with a hit somewhere; the sample as a whole holds those more often.
Exercise: for every item that follows, state its recorded growth inhibition.
Give bare numbers, in %.

1. CC(=O)OCC1OC(OC2=C(CC=C(C)C)C(=O)c3ccccc3C2=O)C(OC(C)=O)C(OC(C)=O)C1OC(C)=O (stereo unspecified) :: 3.85

Provide each entry's growth inhibition from the list below.
1. COc1cc(OC)c2ccc(=O)oc2c1
2. CCOc1ccccc1/C=N/Nc1nc2ccccc2o1
3. CCNCCCCNCCCCNCCCCNCCCCNCC
4. O=C(O)c1ccnc(Br)c1
5. Oc1ccccc1-c1nnco1
6. O=[N+]([O-])c1ccc(CO)cc1
7. O=C(c1ccc(Cl)cc1)c1ccccc1Cl

Result:
8.4
0.4
4.25
-0.05
-13.8
0.35
-8.3

* * *

Assay: NCI Yeast Anticancer Drug Screen. Data for the rad50 strain (AID 155);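 further: 0% = growth of vehicle-only cultures of the same strain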
Conditions: S. cerevisiae rad50 strain growth inhibition; at 50.0 µM; hits give high values
About 79,000 compounds went through this panel and 15% of them were active in at least one assay; those are over-represented in the sample as a whole.
READOUT LABEL: growth inhibition (%)
Answers are plain numbers, in %.

Worked set:
1) Cc1ccccc1C1N=C2Oc3ccccc3C=C2C(=O)N1 (centres undefined) :: 10.7
2) CC1=CC(C)(C)NC(=S)N1c1ccc(S(=O)(=O)O)c2cccc(S(=O)(=O)O)c12 :: -4.8
3) CN(C)c1ccc2oc(=O)c3ccccc3c2c1 :: 6.05
4) Cc1cc(=O)n(-c2ccc(F)cc2)[nH]1 :: -5.15

Can you give me growth inhibition for all of these, one by one?
1. CO[C@H]1C[C@@H]2CC[C@@H](C)[C@@](O)(O2)C(=O)C(=O)N2CCCC[C@H]2C(=O)O[C@H]([C@H](C)C[C@@H]2CC[C@@H](O)[C@H](OC)C2)CC(=O)[C@H](C)C=C(C)[C@@H](O)[C@@H](OC)C(=O)[C@H](C)C[C@H](C)/C=C/C=C/C=C1C
2. CCOC(=O)c1[nH]c(C)c(C(=O)O)c1C
3. CCOC(=O)C1=C(C)NC(=O)NC1c1cccs1 (centres undefined)

Result:
1: 88.8; 2: -4.45; 3: -11.2

Field: growth inhibition. Fill in for each record below.
1. CCCCC(=O)c1ccc(OC)cc1
2. Cc1ccc(C(O)C2CC2)cc1 (centres undefined)
3. N/N=C(/Cc1ccccc1)NNC(N)=S
4. CC1(C)Nc2cccc3c(N=Nc4ccc(N=Nc5ccccc5)c5ccccc45)ccc(c23)N1
5. O=C(Nc1cc(-c2ccccc2)[nH]n1)c1ccc(Cl)cc1
6. CCOc1ccc(/C=N/N=C(N)N)cc1OCC
7. CN(C)C(C)(C)CC(C)(C)C
8. COc1cc(C2c3cc4c(cc3C3OC(=O)C2C3CO)OCO4)cc(OC)c1OC (centres undefined)

Result:
1: 1.9; 2: -24.2; 3: 1.95; 4: -50.5; 5: -5.35; 6: -31.4; 7: 35.7; 8: -7.4
